system: Pseudomonas aeruginosa; assay: Antibacterial activity against Pseudomonas aeruginosa ATCC2785 assessed as bacterial growth inhibition after 24 hrs by broth dilution method; assay type: functional; details: ATCC2785, 24 h
measured.property: MIC

# example entries with known answers
Tell me the measured MIC of COc1cc(/C=C/c2ccc(F)cc2)c(C(=O)O)c(O)c1CC=C(C)C , please.
> 64 µg/mL

Input COC(=O)c1c(/C=C/c2ccc(C(F)(F)F)cc2)cc(OC)c(CC=C(C)C)c1O
> 128 µg/mL

Others:
Tell me the measured MIC of COC(=O)c1c(O)cc(OC)cc1/C=C/c1cc(OC)c(OC)c(OC)c1 , please.
> 128 µg/mL

Input COC(=O)c1c(/C=C/c2cccc(F)c2)cc(OC)c(CC=C(C)C)c1O
> 128 µg/mL

Input COC(=O)c1c(/C=C/c2ccccc2F)cc(OC)c(CC=C(C)C)c1O
> 128 µg/mL

Input COC(=O)c1c(/C=C/c2ccc(OC)cc2)cc(OC)c(CC=C(C)C)c1O
> 128 µg/mL

Input COc1cc(/C=C/c2cccc(C#N)c2)c(C(=O)O)c(O)c1CC=C(C)C
> 64 µg/mL

Input CCn1cc(C(=O)O)c(=O)c2cc(F)c(N3CCNCC3)cc21
16 µg/mL

Input COC(=O)c1c(/C=C/c2ccc(Cl)cc2)cc(OC)c(CC=C(C)C)c1O
> 128 µg/mL

Input COc1cc(/C=C/c2ccc(C(F)(F)F)cc2)c(C(=O)O)c(O)c1CC=C(C)C
> 64 µg/mL

---

system: Staphylococcus epidermidis; assay: Antibacterial activity against Staphylococcus epidermidis ATCC12228 assessed as bacterial growth inhibition after 24 hrs by broth dilution method; assay type: functional; settings: ATCC12228, 24 h
Below, each entry is listed with its recorded MIC.

Tell me the measured MIC of COC(=O)c1c(/C=C/c2cccc(C#N)c2)cc(OC)c(CC=C(C)C)c1O , please.
128 µg/mL

Input COC(=O)c1c(/C=C/c2ccc(OC)cc2)cc(OC)c(CC=C(C)C)c1O
> 128 µg/mL

Input COc1cc(/C=C/c2ccc(Cl)cc2)c(C(=O)O)c(O)c1CC=C(C)C
4 µg/mL

Input COc1cc(/C=C/c2ccccc2F)c(C(=O)O)c(O)c1CC=C(C)C
1 µg/mL

Input COc1cc(/C=C/c2ccc(F)cc2F)c(C(=O)O)c(O)c1CC=C(C)C
0.5 µg/mL

---

tested on: Staphylococcus aureus; experiment: Antibacterial activity against methicillin-resistant Staphylococcus aureus ATCC513045 assessed as bacterial growth inhibition after 24 hrs by broth dilution method; type: functional; conditions: ATCC513045, 24 h
measured.property: MIC (µg/mL)
API: value field is a number in µg/mL; no unit string.

# example entries with known answers
Tell me the measured MIC of COc1cc(/C=C/c2cc(OC)c(OC)c(OC)c2)c(C(=O)O)c(O)c1CC=C(C)C , please.
16

Input COc1cc(/C=C/c2ccc(F)cc2)c(C(=O)O)c(O)c1CC=C(C)C
8

Input COC(=O)c1c(/C=C/c2ccccc2)cc(OC)c(CC=C(C)C)c1O
128

Input COc1cc(/C=C/c2ccc(Cl)cc2)c(C(=O)O)c(O)c1CC=C(C)C
4

Input COc1ccc(/C=C/c2cc(OC)c(CC=C(C)C)c(O)c2C(=O)O)cc1
16

Input COC(=O)c1c(/C=C/c2ccc(C(F)(F)F)cc2)cc(OC)c(CC=C(C)C)c1O
128

Input CCn1cc(C(=O)O)c(=O)c2cc(F)c(N3CCNCC3)cc21
4

Lab note: next compound to report on.
Tell me the measured MIC of COc1cc(C)c(C(=O)O)c(O)c1CC=C(C)C , please.
32
